# testedTarget: Methylosome protein 50/Protein arginine N-methyltransferase 5 (Homo sapiens)
# Sequence (O14744 whole entry): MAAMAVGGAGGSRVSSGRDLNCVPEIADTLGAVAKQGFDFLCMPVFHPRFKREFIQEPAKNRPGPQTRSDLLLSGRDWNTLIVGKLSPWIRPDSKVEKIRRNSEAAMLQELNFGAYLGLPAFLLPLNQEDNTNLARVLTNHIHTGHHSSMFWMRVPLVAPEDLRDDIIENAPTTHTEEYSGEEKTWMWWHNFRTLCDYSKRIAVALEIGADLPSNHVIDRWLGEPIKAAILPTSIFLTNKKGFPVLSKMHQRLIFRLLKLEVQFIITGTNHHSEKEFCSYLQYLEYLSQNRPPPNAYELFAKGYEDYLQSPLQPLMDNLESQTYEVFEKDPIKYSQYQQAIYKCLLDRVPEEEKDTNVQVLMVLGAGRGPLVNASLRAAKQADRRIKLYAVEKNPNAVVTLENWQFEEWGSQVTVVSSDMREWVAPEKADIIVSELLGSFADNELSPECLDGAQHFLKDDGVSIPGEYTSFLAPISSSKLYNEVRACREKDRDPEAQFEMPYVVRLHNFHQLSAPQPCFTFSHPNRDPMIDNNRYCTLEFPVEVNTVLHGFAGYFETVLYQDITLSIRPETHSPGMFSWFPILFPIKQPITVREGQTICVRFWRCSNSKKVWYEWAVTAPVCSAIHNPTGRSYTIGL
# Sequence (Q9BQA1 whole entry, further chain): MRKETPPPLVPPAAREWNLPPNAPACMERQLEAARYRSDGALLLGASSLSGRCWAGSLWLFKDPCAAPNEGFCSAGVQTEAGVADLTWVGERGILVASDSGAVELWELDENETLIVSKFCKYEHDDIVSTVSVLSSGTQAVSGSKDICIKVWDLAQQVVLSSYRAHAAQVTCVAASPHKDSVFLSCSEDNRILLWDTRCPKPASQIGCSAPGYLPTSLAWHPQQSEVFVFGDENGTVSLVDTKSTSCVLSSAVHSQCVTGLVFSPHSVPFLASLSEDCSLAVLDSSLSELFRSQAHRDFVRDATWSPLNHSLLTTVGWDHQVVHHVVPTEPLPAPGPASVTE
Strictly below 0.06 µM in IC50: YES. Otherwise: NO.

>>> print(df.to_string())
                                   compound  labelvalue
0  C[C@H](c1ncccn1)N(Cc1ccc(C(F)(F)F)cn1)C(=O)c1cc2c(cn1)nc(N)c1cncn12 [US20240262835, Compound 10]          NO
1  C[C@H]1CC[C@H](c2ccc3c(c2)CCC(=O)N3)N(C(=O)c2ccc3nc(N)c4cncn4c3c2)C1 [US20240262835, Compound 4]         YES
2  Cn1ncc(-c2ccc3c(c2)nc(N)c2cncn23)c1-c1c(F)cc2ccccc2c1C#N [US20240262835, Compound 1]         YES
3  C[C@H](c1ncccn1)N(Cc1ccc(C(F)(F)F)cn1)C(=O)c1ccc2nc(N)n3cncc3c2c1 [US20240262835, Compound 5]          NO
4  C[C@H](c1ncccn1)N(Cc1ccc(C(F)(F)F)cn1)C(=O)c1ccc2nc(N)c3cncn3c2c1 [US20240262835, Compound 3]          NO
5  C[C@H](c1ncccn1)N(Cc1ccc(C(F)(F)F)cn1)C(=O)c1cc2c(cc1F)nc(N)c1cncn12 [US20240262835, Compound 6]          NO
